system: SARS-CoV-2, isolate USA-WA1/2020; experiment: microbe, parasite or virus in culture; type: cell-based; conditions: HeLa-ACE2 SARS-CoV-2 antiviral effect without P-gp inhibitor; maximum measured response
Measurement Type: perc_max_measured (%)
Respond numerically; units are % and should not be typed.

Some solved cases for reference:
[
  {
    "Compound": "Cn1ncc(-c2cc3c(N[C@@H](c4ccc5c(n4)OCCO5)C(C)(C)C)ncnc3[nH]2)c1C#N",
    "Numeric Result": 101.751
  },
  {
    "Compound": "CC(C)[C@@H](Nc1ncnc2[nH]c(-c3cnn(C)c3C#N)cc12)c1ccc2c(n1)OCCO2",
    "Numeric Result": 105.062
  },
  {
    "Compound": "CNCc1cc(-c2cc3c(N[C@@H](c4ccc5c(c4)S(=O)(=O)CCC5)C(C)C)ncnc3[nH]2)co1",
    "Numeric Result": 134.366
  }
]

Let's switch to this compound now.
Which perc_max_measured value is on record for Cc1nn(C)cc1-c1cc2c(NC(c3ccc4c(c3)S(=O)(=O)CCC4)C(C)C)ncnc2[nH]1 (stereo not shown) ? 111.189
